biological target: 5-hydroxytryptamine receptor 6 (Homo sapiens, UniProt P50406); format: cell membranes, HeLa, Membrane; conditions: read-out: Ki; note: in other assays of this panel Not Active means under 50% inhibition at 10 µM
Sequence (P50406 whole entry): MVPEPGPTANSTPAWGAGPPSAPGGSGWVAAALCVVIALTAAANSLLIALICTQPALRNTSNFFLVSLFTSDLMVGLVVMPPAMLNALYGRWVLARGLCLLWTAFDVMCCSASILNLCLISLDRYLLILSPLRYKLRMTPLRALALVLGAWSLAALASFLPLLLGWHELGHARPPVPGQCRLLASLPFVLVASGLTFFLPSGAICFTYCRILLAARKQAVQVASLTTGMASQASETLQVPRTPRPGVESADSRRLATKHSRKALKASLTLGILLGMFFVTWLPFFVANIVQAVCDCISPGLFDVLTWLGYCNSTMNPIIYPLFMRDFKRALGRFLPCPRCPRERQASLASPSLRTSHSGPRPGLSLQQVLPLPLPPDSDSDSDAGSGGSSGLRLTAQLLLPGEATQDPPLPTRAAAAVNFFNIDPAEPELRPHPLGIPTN
Answer each item with its documented pKi.
Entry type: numeric. Quantity: pKi, the -log10 of concentration in molar units.

Param item = CN1CCC(=C2c3ccccc3C=Cc3ccccc32)CC1 ; retrieve measured pKi.
6.89

Now consider CC(C)NCC(O)COc1cccc2ccccc12 (centres undefined) .
5.85

Now consider COc1cc(NS(=O)(=O)c2ccc(N)cc2)nc(OC)n1 .
6.21

Now consider CC/C(=C(/CC)c1ccc(O)cc1)c1ccc(O)cc1 .
5.22

* * *

experiment: DRUGMATRIX: GABAA, Chloride Channel, TBOB radioligand binding (ligand: [3H] TBOB); assay type: cell membranes, Rattus norvegicus, Wistar, Cerebral cortex, Membrane; details: Not Active = under 50% inhibition at 10 µM
observable: IC50

Cc1cccc(Nc2ccncc2S(=O)(=O)NC(=O)NC(C)C)c1 [TORSEMIDE] ... Not Active
CC1=C(C(=O)O)N2C(=O)[C@@H](NC(=O)[C@H](N)c3ccccc3)[C@H]2SC1 [CEPHALEXIN ANHYDROUS] ... Not Active
CC[C@@H](CO)NCCN[C@@H](CC)CO ... Not Active
C[C@]12CC[C@@H]3c4ccc(O)cc4CC[C@H]3[C@@H]1CC[C@@H]2O ... Not Active
CC1(C)O[C@@H]2C[C@H]3[C@@H]4C[C@H](F)C5=CC(=O)CC[C@]5(C)[C@H]4[C@@H](O)C[C@]3(C)[C@]2(C(=O)CO)O1 [FLURANDRENOLIDE] ... Not Active

Param item = CC[C@]1(O)C[C@@H]2CN(CCc3c([nH]c4ccccc34)[C@@](C(=O)OC)(c3cc4c(cc3OC)N(C)[C@H]3[C@@](O)(C(=O)OC)[C@H](OC(C)=O)[C@]5(CC)C=CCN6CC[C@]43[C@@H]65)C2)C1 ; retrieve measured IC50.
Not Active

Now consider COc1ccc2[nH]c([S+]([O-])Cc3ncc(C)c(OC)c3C)nc2c1 (configuration not stated) .
Not Active

* * *

target: Cytochrome P450 2E1 (Homo sapiens); conditions: bti-tn-5b1-4; note: in other assays of this panel Not Active means under 50% inhibition at 10 µM
Sequence (P05181 whole entry): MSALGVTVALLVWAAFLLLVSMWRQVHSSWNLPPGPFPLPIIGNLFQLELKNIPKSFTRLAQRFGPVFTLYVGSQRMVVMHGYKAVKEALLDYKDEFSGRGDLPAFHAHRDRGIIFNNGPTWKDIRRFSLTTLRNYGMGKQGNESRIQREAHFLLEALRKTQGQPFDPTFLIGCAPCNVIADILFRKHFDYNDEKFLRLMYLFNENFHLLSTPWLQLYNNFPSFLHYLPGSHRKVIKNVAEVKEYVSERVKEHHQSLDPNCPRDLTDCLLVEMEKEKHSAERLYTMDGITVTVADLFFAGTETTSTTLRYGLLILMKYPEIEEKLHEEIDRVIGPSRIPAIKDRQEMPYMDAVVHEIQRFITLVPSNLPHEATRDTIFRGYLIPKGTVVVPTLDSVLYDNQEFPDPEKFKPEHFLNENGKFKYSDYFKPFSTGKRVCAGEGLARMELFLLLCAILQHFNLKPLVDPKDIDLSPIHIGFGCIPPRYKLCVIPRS
observable: IC50

The examples below pair each entry with its known result.
S=C=Nc1cccc2ccccc12 [1-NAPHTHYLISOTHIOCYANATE] ... Not Active
CC(C)Cc1ccc(C(C)C(=O)O)cc1 (stereo not drawn) ... Not Active
CCCCN1CCCCC1C(=O)Nc1c(C)cccc1C.Cl (stereo not drawn) [BUPIVACAINE HYDROCHLORIDE] ... Not Active
CNC(=C[N+](=O)[O-])NCCSCc1ccc(CN(C)C)o1 ... Not Active
CCN1CC(CCN2CCOCC2)C(c2ccccc2)(c2ccccc2)C1=O (stereo not drawn) ... Not Active

As a next step, examine the molecule that follows.
Param item = Clc1ccc2c(c1)C(N1CCNCC1)=Nc1ccccc1O2 ; retrieve measured IC50.
Not Active

* * *

target: Carbonic anhydrase 2 (Homo sapiens, UniProt P00918); assay: DRUGMATRIX: Carbonic Anhydrase II enzyme inhibition (substrate: 4-Nitrophenyl acetate (4-NPA)); format: tissue-based, Erythrocyte; conditions: erythrocyte; Not Active = under 50% inhibition at 10 µM
observable: IC50

CO[C@H]1/C=C/O[C@@]2(C)Oc3c(C)c(O)c4c(c3C2=O)C2=NC3(CCN(CC(C)C)CC3)NC2=C(NC(=O)/C(C)=C\C=C\[C@H](C)[C@H](O)[C@@H](C)[C@@H](O)[C@@H](C)[C@H](OC(C)=O)[C@@H]1C)C4=O [RIFABUTIN] ... Not Active
CC(=O)N[C@@H]1[C@H](Oc2c3cc4cc2Oc2ccc(cc2Cl)[C@@H](O[C@@H]2O[C@@H](CO)[C@@H](O)[C@H](O)[C@@H]2NC(C)=O)[C@@H]2NC(=O)[C@H](NC(=O)[C@@H]4NC(=O)[C@H]4NC(=O)[C@@H](Cc5ccc(c(Cl)c5)O3)NC(=O)[C@H](N)c3ccc(O)c(c3)Oc3cc(O)cc4c3)c3ccc(O)c(c3)-c3c(O[C@H]4O[C@H](CO)[C@@H](O)[C@@H](O)[C@@H]4O)cc(O)cc3[C@@H](C(=O)O)NC2=O)O[C@@H](CO)[C@@H](O)[C@@H]1O ... Not Active
